Listed here are compounds together with their documented melting point.

Study these solved cases before continuing.
CCCCc1nn(-c2ccc(C(F)(F)F)cn2)cc1CCCOc1c(CC(=O)O)cccc1OC
121 to 122 °C
COC(=O)C1=C(C)NC(C)=C(c2nc(CCl)no2)C1c1cccc([N+](=O)[O-])c1 (stereo unspecified)
200 to 202 °C
CSC1C2=C(CCCC2)C(=O)N1c1ccc(Cl)cc1F (stereo unspecified)
97 to 98 °C

## Input Consider the compound COc1ccc(CN2C(=O)C[C@H]2[C@@H]2COC(C)(C)O2)c(OC)c1 and give its measured melting point.
## Output 85 to 86 °C

## Input // repeat for COC[C@H]1CCCN1NC(=O)Nc1cccc2c1C(=O)c1c-2n[nH]c1-c1ccc(C(=O)N2CCNCC2)s1 and report
## Output > 300 °C

## Input // repeat for O=C(O)c1ccc(OCCCCCCc2cccc(O)c2O)cc1 and report
## Output 170 to 172 °C
